# Test system: mouse mast cells (MC/9)
# Method summary: antigen-induced release of hexosaminidase from MC/9 cells
# Format: cell-based
# Cond: Mus musculus, MC9, 25 μM compound, read-out: Percentage Inhibition (mean) MC/9 cells
As shown below, each of these compounds has a reported inhibition at 25 µM value.
Dear colleague, please return just the value in %, with no unit written.

- Compound: "C/C=C1/CCC2C3C(CC[C@]12C)[C@@]1(C)CCC(=O)CC1[C@@H](O)[C@@H]3O (stereo partly shown)"
  Experimental system: "mouse mast cells (MC/9)"
  Scale unit: "%"
  inhibition at 25 µM: 69
- Compound: "CC1(C)O[C@@H]2C3C(CC[C@]4(C)C(=O)CCC34)[C@@]3(C)CC[C@H](O)CC3[C@H]2O1 (stereo partly shown)"
  Experimental system: "mouse mast cells (MC/9)"
  Scale unit: "%"
  inhibition at 25 µM: 5
- Compound: "C/C=C1/CCC2C3C(CC[C@]12C)[C@@]1(C)CC[C@H](O)CC1[C@@H](O)[C@@H]3O (stereo partly shown)"
  Experimental system: "mouse mast cells (MC/9)"
  Scale unit: "%"
  inhibition at 25 µM: 71

stdin: inhibition at 25 µM for C[C@H]1CCC2C3C(CC[C@@]21C)[C@@]1(C)CC[C@H](O)CC1[C@@H](O)[C@@H]3O (stereo partly shown) ?
stdout: 40
